- MEASUREMENT_PROTOCOL: Individual predicted steady-state PK parameters
- Format: in vivo, human
- MEASUREMENT_CONDITIONS: human, plasma, oral, 50 mg, AUC(0-τ), steady state; SPRING-1, 50 mg once daily; geometric mean (95% CI)
METRIC: AUC

Query: Which AUC reading was recorded for the compound C[C@@H]1CCO[C@H]2Cn3cc(C(=O)NCc4ccc(F)cc4F)c(=O)c(O)c3C(=O)N12 [dolutegravir, Dolutegravir] ?
Response: 53.8 µg·h/mL

* * *

- MEASUREMENT_PROTOCOL: Individual predicted steady-state PK parameters
- Assay type: in vivo, human
- MEASUREMENT_CONDITIONS: human, plasma, oral, 50 mg, AUC(0-τ), steady state; ING111521, 50 mg once daily; geometric mean (95% CI)
METRIC: AUC (ng·h/mL)
Give just the numeric value; ng·h/mL need not be written.

Query: What value of AUC has been recorded for this entry: `C[C@@H]1CCO[C@H]2Cn3cc(C(=O)NCc4ccc(F)cc4F)c(=O)c(O)c3C(=O)N12`
Response: 41300
